# System: HT29
# experimental protocol: MTT cytotoxicity assay, HT29
# Type: cell-based
# condition label: Homo sapiens, HT-29; MTT, 72 h, 0.05–50 µM
IC50 listing for selected compounds.

# annotated cases, reported IC50 shown
Query :: Which IC50 value belongs to CCCCn1cnc2c(-c3ccc(OC(F)(F)F)cc3)nc(NC3CCCC3)nc21 ?
Result :: > 50 µM

Query :: Which IC50 value belongs to CCCCCn1cnc2c(-c3ccc(OC(F)(F)F)cc3)nc(NC3CCCCC3)nc21 ?
Result :: > 50 µM

Query :: Which IC50 value belongs to CCCCCCn1cnc2c(-c3ccc(OC(F)(F)F)cc3)nc(N3CCN(c4ccncc4)CC3)nc21 ?
Result :: 15 µM

Query :: Which IC50 value belongs to CCCCCn1cnc2c(-c3ccc(OC(F)(F)F)cc3)nc(N3CCN(c4ccncc4)CC3)nc21 ?
Result :: > 50 µM

Query :: Which IC50 value belongs to O=c1[nH]cc(F)c(=O)[nH]1 [Compound 5-FU, 5-fluorouracil, reference compound] ?
Result :: 0.51 µM

Query :: Which IC50 value belongs to CS(=O)(=O)c1ccc(C(=O)Nc2ccc(Cl)c(-c3ccccn3)c2)c(Cl)c1 [Vismodegib, reference compound] ?
Result :: > 50 µM

Query :: Which IC50 value belongs to CCCCCn1cnc2c(-c3ccc(OC(F)(F)F)cc3)nc(NC3CCCC3)nc21 ?
Result :: > 50 µM

Query :: Which IC50 value belongs to CCCCCn1cnc2c(-c3ccc(OC(F)(F)F)cc3)nc(NCC3CCCCC3)nc21 ?
Result :: > 50 µM

Could you now look at the following compound, please?
Query :: Which IC50 value belongs to CCCCCCn1cnc2c(-c3ccc(OC(F)(F)F)cc3)nc(NC3CCCC3)nc21 ?
Result :: > 50 µM

Taken from paper PMC8395040.
